- assay: Selectivity for class IIa HDACs as ratio of IC50 for maize histone deacetylase 1-B and 1-A
readoutName: SI

[
  {
    "compound": "Cn1cc(/C=C/C(=O)c2ccc(-c3ccccc3)cc2)cc1/C=C/C(=O)NO",
    "SI": 14.4
  }
]

1 = O=C(CCCCCCC(=O)Nc1ccc([C@H]2O[C@@H](CSc3nc(-c4ccccc4)c(-c4ccccc4)o3)C[C@@H](c3ccc(CO)cc3)O2)cc1)NO [TUBACIN]
2 = Cn1cc(/C=C/C(=O)c2cccc(C(F)(F)F)c2)cc1/C=C/C(=O)NO
3 = Cn1cc(/C=C/C(=O)c2cccc(F)c2)cc1/C=C/C(=O)NO
Inquiry: Thanks in advance: please rank these 3 entries by SI, highest to lowest. Response format: the labels, sorted as the prompt asks.
Reply text: 3, 2, 1

---

- assay: Selectivity for class IIa HDACs as ratio of IC50 for maize histone deacetylase 1-B and 1-A
readoutName: SI

Please review the entries below; each comes with its answer.
[
  {
    "compoundString": "Cn1cc(/C=C/C(=O)c2ccc3ccccc3c2)cc1/C=C/C(=O)NO",
    "SI": 45
  },
  {
    "compoundString": "Cn1cc(/C=C/C(=O)c2ccccc2F)cc1/C=C/C(=O)NO",
    "SI": 34
  },
  {
    "compoundString": "Cc1ccccc1C(=O)/C=C/c1cc(/C=C/C(=O)NO)n(C)c1",
    "SI": 6.5
  }
]

1 = Cn1cc(/C=C/C(=O)c2cccc(Cl)c2)cc1/C=C/C(=O)NO
2 = Cn1cc(/C=C/C(=O)c2cccc(OC(F)(F)F)c2)cc1/C=C/C(=O)NO
3 = Cc1cccc(C(=O)/C=C/c2cc(/C=C/C(=O)NO)n(C)c2)c1
Inquiry: Rank the items in ascending order with respect to SI. A ranking is expressed here by listing the labels in the requested order.
Reply text: 2, 3, 1

1 = Cc1ccc(C(=O)/C=C/c2cc(/C=C/C(=O)NO)n(C)c2)cc1
2 = Cn1cc(/C=C/C(=O)c2cccc3ccccc23)cc1/C=C/C(=O)NO
Inquiry: // returns 1 or 2 , whichever has the lower SI State the label of the item chosen.
Reply text: 1

1 = Cn1cc(/C=C/C(=O)c2ccccc2Cl)cc1/C=C/C(=O)NO
2 = CC/C(=C\c1cc(/C=C/C(=O)NO)n(C)c1)C(=O)c1ccccc1
Inquiry: Hi! Which is lower in terms of SI, the first one 1 or the second one 2 ? Refer to your chosen entry by its label in the reply.
Reply text: 2
(2: 20.4, 1: 32)

---

- assay: Inhibitory concentration against maize histone deacetylase 1-A (class IIa HDAC)
pIC50: −log10 of the molar value.
readoutName: pIC50

Solved cases (5 shown):
[
  {
    "molecule": "C/C(=C\\c1cc(/C=C/C(=O)NO)n(C)c1)C(=O)c1ccccc1",
    "pIC50": 6.11
  },
  {
    "molecule": "Cc1ccccc1C(=O)/C=C/c1cc(/C=C/C(=O)NO)n(C)c1",
    "pIC50": 7.22
  },
  {
    "molecule": "Cc1cccc(C(=O)/C=C/c2cc(/C=C/C(=O)NO)n(C)c2)c1",
    "pIC50": 6.77
  },
  {
    "molecule": "Cn1cc(/C=C/C(=O)c2ccc(Br)cc2)cc1/C=C/C(=O)NO",
    "pIC50": 4.69
  },
  {
    "molecule": "O=C(CCCCCCC(=O)Nc1ccc([C@H]2O[C@@H](CSc3nc(-c4ccccc4)c(-c4ccccc4)o3)C[C@@H](c3ccc(CO)cc3)O2)cc1)NO [TUBACIN]",
    "pIC50": 6.35
  }
]

A = COc1cccc(C(=O)/C=C/c2cc(/C=C/C(=O)NO)n(C)c2)c1
B = Cn1cc(/C=C/C(=O)c2ccccc2)cc1/C=C/C(=O)NO
C = Cn1cc(/C=C/C(=O)c2cccc(OC(F)(F)F)c2)cc1/C=C/C(=O)NO
Inquiry: Please put the entries in order of rising pIC50. The labels, placed in the requested order, form the answer.
Reply text: C, A, B
(C: 4.05, A: 6.41, B: 6.72)

---

What follows is a collection of pIC50 values obtained with Histone deacetylase HD2 (Zea mays, UniProt Q94F81).
pIC50: −log10 of the molar value.
readoutName: pIC50

Consider the following illustrative entries.
[
  {
    "compoundString": "Cn1cc(/C=C/C(=O)c2ccc(Br)cc2)cc1/C=C/C(=O)NO",
    "pIC50": 4.55
  },
  {
    "compoundString": "O=C(CCCCCCC(=O)Nc1ccc([C@H]2O[C@@H](CSc3nc(-c4ccccc4)c(-c4ccccc4)o3)C[C@@H](c3ccc(CO)cc3)O2)cc1)NO",
    "pIC50": 5.70
  },
  {
    "compoundString": "COc1ccccc1C(=O)/C=C/c1cc(/C=C/C(=O)NO)n(C)c1",
    "pIC50": 6.60
  },
  {
    "compoundString": "Cn1cc(/C=C/C(=O)c2cccc(Br)c2)cc1/C=C/C(=O)NO",
    "pIC50": 5.68
  },
  {
    "compoundString": "Cn1cc(/C=C/C(=O)c2cccc(OC(F)(F)F)c2)cc1/C=C/C(=O)NO",
    "pIC50": 3.75
  }
]

P = Cn1cc(/C=C/C(=O)c2cccc(F)c2)cc1/C=C/C(=O)NO
Q = Cn1cc(/C=C/C(=O)c2cccc(C(F)(F)F)c2)cc1/C=C/C(=O)NO
Inquiry: Select one. Lower pIC50: P or Q Lab log: write the label of the selected item as the result.
Reply text: Q

---

- assay: Inhibitory concentration against maize histone deacetylase 1-A (class IIa HDAC)
readoutName: IC50 (nM)

Sample records with IC50:
[
  {
    "compoundString": "Cn1cc(/C=C/C(=O)c2ccc(Cl)cc2)cc1/C=C/C(=O)NO",
    "readoutName": "IC50",
    "val": 18600
  },
  {
    "compoundString": "Cn1cc(/C=C/C(=O)c2ccc(-c3ccccc3)cc2)cc1/C=C/C(=O)NO",
    "readoutName": "IC50",
    "val": 2200
  }
]

P = Cn1cc(/C=C/C(=O)c2cccc(Br)c2)cc1/C=C/C(=O)NO
Q = COc1ccccc1C(=O)/C=C/c1cc(/C=C/C(=O)NO)n(C)c1
R = COc1ccc(C(=O)/C=C/c2cc(/C=C/C(=O)NO)n(C)c2)cc1
Inquiry: Ascending by IC50, please: list the compounds accordingly. Please list the labels in the order you were asked to rank them.
Reply text: Q, R, P
(Q: 160 nM, R: 790 nM, P: 1600 nM)

---

- testTarget: Histone deacetylase HD2 (Zea mays) (UniProt Q94F81)
- Sequence (whole entry): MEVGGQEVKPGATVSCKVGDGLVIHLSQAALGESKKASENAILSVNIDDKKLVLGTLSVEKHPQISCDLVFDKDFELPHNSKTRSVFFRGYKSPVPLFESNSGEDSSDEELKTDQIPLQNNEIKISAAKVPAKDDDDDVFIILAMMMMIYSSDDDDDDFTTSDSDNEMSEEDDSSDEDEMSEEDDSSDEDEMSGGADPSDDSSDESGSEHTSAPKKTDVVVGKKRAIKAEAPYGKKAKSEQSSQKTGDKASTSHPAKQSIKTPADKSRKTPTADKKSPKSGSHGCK
- assay: Inhibitory activity against maize histone deacetylase 2 at 24.8 uM
readoutName: inhibition (%)

Reference set, count: 2
[
  {
    "compoundString": "C/C(=C\\c1cc(/C=C/C(=O)NO)n(C)c1)C(=O)c1ccccc1",
    "testTarget": "Histone deacetylase HD2 (Zea mays) (UniProt Q94F81)",
    "val": 89.9
  },
  {
    "compoundString": "Cc1cccc(C(=O)/C=C/c2cc(/C=C/C(=O)NO)n(C)c2)c1",
    "testTarget": "Histone deacetylase HD2 (Zea mays) (UniProt Q94F81)",
    "val": 72
  }
]

A = Cc1ccccc1C(=O)/C=C/c1cc(/C=C/C(=O)NO)n(C)c1
B = Cc1ccc(C(=O)/C=C/c2cc(/C=C/C(=O)NO)n(C)c2)cc1
Inquiry: Please indicate which item has the smaller measured inhibition: A versus B Your answer should be the label of the entry you select.
Reply text: B
(B: 65%, A: 96%)

---

- assay: Inhibitory concentration against maize histone deacetylase 1-A (class IIa HDAC)
readoutName: IC50 (nM)

[
  {
    "molecule": "Cn1cc(/C=C/C(=O)c2ccccc2F)cc1/C=C/C(=O)NO",
    "unitAbbreviation": "nM",
    "IC50": 100
  },
  {
    "molecule": "Cn1cc(/C=C/C(=O)c2ccc(F)cc2)cc1/C=C/C(=O)NO",
    "unitAbbreviation": "nM",
    "IC50": 15700
  },
  {
    "molecule": "Cn1cc(/C=C/C(=O)c2cccc(F)c2)cc1/C=C/C(=O)NO",
    "unitAbbreviation": "nM",
    "IC50": 220
  },
  {
    "molecule": "Cn1cc(/C=C/C(=O)c2cccc(C(F)(F)F)c2)cc1/C=C/C(=O)NO",
    "unitAbbreviation": "nM",
    "IC50": 9300
  },
  {
    "molecule": "Cn1cc(/C=C/C(=O)c2ccc3ccccc3c2)cc1/C=C/C(=O)NO",
    "unitAbbreviation": "nM",
    "IC50": 40
  }
]

1 = Cc1ccc(C(=O)/C=C/c2cc(/C=C/C(=O)NO)n(C)c2)cc1
2 = Cn1cc(/C=C/C(=O)c2ccccc2Cl)cc1/C=C/C(=O)NO
3 = CC(/C=C/C(=O)NO)=C\[C@@H](C)C(=O)c1ccc(N(C)C)cc1 [TRICHOSTATIN]
4 = Cn1cc(/C=C/C(=O)c2ccccc2Br)cc1/C=C/C(=O)NO
Inquiry: List from greatest to least IC50. Order the labels as requested and give them as your answer.
Reply text: 1, 4, 2, 3

a = Cn1cc(/C=C/C(=O)c2cccc(Cl)c2)cc1/C=C/C(=O)NO
b = CC/C(=C\c1cc(/C=C/C(=O)NO)n(C)c1)C(=O)c1ccccc1
c = Cn1cc(/C=C/C(=O)c2cccc3ccccc23)cc1/C=C/C(=O)NO
Inquiry: # sort list by recorded IC50, greatest to least Field: ranking. Enter the labels in the order requested.
Reply text: a, b, c

Where do the numbers come from? From ChEMBL document CHEMBL1144421.
